target: MAGI2_4, Q86UL8
Sequence (Q86UL8 772-865): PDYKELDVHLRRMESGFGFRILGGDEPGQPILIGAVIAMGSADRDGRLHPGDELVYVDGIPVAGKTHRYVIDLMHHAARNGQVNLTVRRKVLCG
run description: holdup assay
Set-up: key: below the threshold = too weak to quantify, mostly under pKd 3.1 to 4
conditions used: plain residues with an end cap or a label only (N-terminal biotin on a linker: ahx)
endpoint label: pKd

APSRKLNTEI [TIAM1, Q13009] ... below the threshold
QDEKVKESYV [ABCA1, O95477] ... 4.04
QPRTWLQSPV [RTKN, Q9BST9] ... below the threshold
TQKFRASTAL [FRMPD1, Q5SYB0] ... 3.48
TESNLQTSSC [CGN, Q9P2M7] ... 3.53

## Task // query pKd value for entry HTHSYIETHV [CNKSR2, Q8WXI2]
## Result below the threshold

## Task Similarly, QNTDDVQTSF [ACE2, Q9BYF1] ?
## Result below the threshold

## Task Similarly, TEAKLTETNA [MYO18A, Q92614] ?
## Result below the threshold

## Task Similarly, EKQAKGDTEF [CACYBP, Q9HB71] ?
## Result below the threshold

Source of measurements: paper PMC9482650
